pIC50 values by entry
Tested System: EGFR (Homo sapiens, UniProt P00533)
Sequence (P00533 25-1210): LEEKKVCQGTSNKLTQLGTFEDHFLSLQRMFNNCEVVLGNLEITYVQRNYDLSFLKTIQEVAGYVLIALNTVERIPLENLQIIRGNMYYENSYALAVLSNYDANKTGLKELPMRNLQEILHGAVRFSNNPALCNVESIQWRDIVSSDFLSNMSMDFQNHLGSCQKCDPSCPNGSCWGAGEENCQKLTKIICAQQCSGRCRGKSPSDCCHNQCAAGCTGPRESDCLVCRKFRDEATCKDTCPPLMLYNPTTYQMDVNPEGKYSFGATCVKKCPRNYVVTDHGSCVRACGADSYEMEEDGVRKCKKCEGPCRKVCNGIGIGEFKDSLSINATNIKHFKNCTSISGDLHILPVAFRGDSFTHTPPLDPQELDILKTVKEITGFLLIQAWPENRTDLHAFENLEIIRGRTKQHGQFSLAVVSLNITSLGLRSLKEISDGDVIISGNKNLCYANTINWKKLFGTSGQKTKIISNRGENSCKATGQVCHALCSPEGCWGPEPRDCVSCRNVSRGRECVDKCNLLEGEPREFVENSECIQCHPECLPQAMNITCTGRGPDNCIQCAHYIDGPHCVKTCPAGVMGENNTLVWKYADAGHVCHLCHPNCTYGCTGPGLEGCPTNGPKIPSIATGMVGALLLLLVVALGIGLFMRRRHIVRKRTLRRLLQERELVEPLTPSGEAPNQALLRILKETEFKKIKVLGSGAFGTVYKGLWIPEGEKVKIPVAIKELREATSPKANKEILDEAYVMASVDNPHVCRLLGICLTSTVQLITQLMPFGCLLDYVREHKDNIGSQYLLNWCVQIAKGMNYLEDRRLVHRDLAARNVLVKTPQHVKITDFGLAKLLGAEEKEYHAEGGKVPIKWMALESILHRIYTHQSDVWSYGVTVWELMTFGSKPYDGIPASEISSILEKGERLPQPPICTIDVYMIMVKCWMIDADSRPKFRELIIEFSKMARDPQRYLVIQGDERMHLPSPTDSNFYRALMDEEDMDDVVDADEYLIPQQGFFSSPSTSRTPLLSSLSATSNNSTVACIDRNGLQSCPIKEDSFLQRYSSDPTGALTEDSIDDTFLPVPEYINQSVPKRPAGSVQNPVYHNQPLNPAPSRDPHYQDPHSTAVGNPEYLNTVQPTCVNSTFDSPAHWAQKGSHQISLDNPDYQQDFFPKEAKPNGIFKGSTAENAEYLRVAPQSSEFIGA
Assay Comment: Inhibition of a panel of kinases, in vitro HotSpot kinase assay: EGFR
Type: biochemical
Test Settings: D-compounds panel data; 1 μM ATP
pIC50: −log10 of the molar value.

| Molecule | Observed |
| --- | --- |
| Cc1nc2cc(C(=O)N[C@@H]3CCCN(c4cnc(C(N)=O)c(Nc5cnn(C)c5)n4)[C@@H]3C)ccc2[nH]1 [Example D-261] | 6.00 to 7.00 |
| Cn1cc(Nc2nc(N3C[C@@H](NC(=O)c4ccc(C5CC5)cc4)CC(F)(F)C3)cnc2C(N)=O)cn1 [Example D-189] | 5.00 to 6.00 |
| C[C@@H]1[C@H](NC(=O)c2ccc(C(C)(O)C(F)(F)F)cc2)CCCN1c1cnc(C(N)=O)c(Nc2cnn(C)c2)n1 (single isomer, unassigned) [Example D-213] | 5.00 to 6.00 |

Please respond with reported pIC50 (system EGFR (Homo sapiens, UniProt P00533)) for C[C@@H]1[C@H](NC(=O)N(C)C)CCCN1c1cnc(C(N)=O)c(Nc2ccc(N3CCN(C)CC3)cc2)n1 [Example D-111] .
6.00 to 7.00

Please respond with reported pIC50 (system EGFR (Homo sapiens, UniProt P00533)) for C[C@@H]1[C@H](NC(=O)c2ccc(C3CC3)cc2)CCCN1c1cnc(C(N)=O)c(Nc2ccc(N3CCC(C(C)(C)O)CC3)cc2)n1 [Example D-100] .
5.00 to 6.00

Please respond with reported pIC50 (system EGFR (Homo sapiens, UniProt P00533)) for CC(=O)N1CCC(n2cc(Nc3nc(N4CCC[C@@H](NC(=O)c5ccc(C6CC6)cc5)[C@H]4C)cnc3C(N)=O)cn2)CC1 [Example D-283] .
5.00 to 6.00

----------
Tested System: BTK-WT (Homo sapiens)
Construct: purified from insect cells as a full-length construct containing an N-terminal 6X-His tag; His6 (N); made in house; host or cells: insect cells (baculovirus Sf21 in Method B)
Sequence (Q06187 whole entry): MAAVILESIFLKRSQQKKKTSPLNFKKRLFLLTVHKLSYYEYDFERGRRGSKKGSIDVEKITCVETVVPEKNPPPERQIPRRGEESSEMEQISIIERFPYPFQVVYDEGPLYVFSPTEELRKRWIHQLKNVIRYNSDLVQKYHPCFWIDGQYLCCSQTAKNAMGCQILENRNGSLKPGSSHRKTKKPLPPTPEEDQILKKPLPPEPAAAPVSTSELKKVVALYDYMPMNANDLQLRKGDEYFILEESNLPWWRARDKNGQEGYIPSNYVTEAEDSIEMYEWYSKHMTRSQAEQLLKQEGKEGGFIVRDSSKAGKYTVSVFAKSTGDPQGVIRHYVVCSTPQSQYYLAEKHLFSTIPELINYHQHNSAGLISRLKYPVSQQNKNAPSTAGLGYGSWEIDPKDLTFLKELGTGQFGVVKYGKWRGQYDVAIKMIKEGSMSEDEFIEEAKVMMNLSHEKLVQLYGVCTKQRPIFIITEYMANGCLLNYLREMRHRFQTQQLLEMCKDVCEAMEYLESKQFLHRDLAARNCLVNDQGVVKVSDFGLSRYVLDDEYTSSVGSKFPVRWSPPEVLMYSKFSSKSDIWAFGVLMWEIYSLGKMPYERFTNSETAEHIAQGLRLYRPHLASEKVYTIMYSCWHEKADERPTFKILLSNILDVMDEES
Assay Comment: Btk in vitro inhibitory activity (one of Method A TR-FRET, Method B electrophoretic mobility shift, Method C radiometric filter binding)
Assay type: biochemical
Test Settings: D-compounds panel data; read-out: IC50 BTK-WT
Measured Quantity: IC50

Recorded IC50, per entry:
| Molecule | Observed |
| --- | --- |
| Cc1cc(Nc2nc(N3C[C@H](NC(=O)c4ccc(C5CC5)cc4F)CC[C@@H]3C)cnc2C(N)=O)sn1 | ≤ 10 nM |
| C[C@@H]1[C@H](NC(=O)N(C)C)CCCN1c1cnc(C(N)=O)c(Nc2cc(C3CCOCC3)ns2)n1 | ≤ 10 nM |
| C[C@@H]1[C@H](NC(=O)c2ccc3[nH]cnc3c2)CCCN1c1cnc(C(N)=O)c(Nc2cnn(C)c2)n1 | ≤ 10 nM |
| C[C@@H]1[C@H](NC(=O)c2ccc(C3CC3)cc2F)CCCN1c1cnc(C(N)=O)c(Nc2ccc(N3CCN(C)CC3)nc2)n1 | ≤ 10 nM |
| Cn1cc(Nc2nc(N3CCC[C@@H](NC(=O)c4ccc(C5CC5)cc4)C3)nnc2C(N)=O)cn1 | ≤ 10 nM |
| CC(C)c1ccc(C(=O)N[C@@H]2CCCN(c3cnc(C(N)=O)c(Nc4cnn(C)c4)n3)C2)cc1 | ≤ 10 nM |

# ---- query molecule ----
Quick one: give measured IC50 for "Cc1ncc(Nc2nc(N3CCC[C@@H](NC(=O)c4ccc(C5CC5)cc4F)C3)cnc2C(N)=O)s1"
10 to 100 nM
